Attribute: pIC50
molecular target: Recombinant STAT6 protein (STAT6 (W123-T658)) (Homo sapiens); construct: Recombinant STAT6 protein (STAT6 (W123-T658)); assay: STAT6 Fluorescence Polarization (FP) Assay; assay type: binding; conditions: STAT6 (W123-T658) 250 nM, probe 5-FAM-Ap[…]-NH2 2 nM, 45-minute incubation; read-out: STAT6 (FP assay IC50 class)
Sequence (P42226 123-658): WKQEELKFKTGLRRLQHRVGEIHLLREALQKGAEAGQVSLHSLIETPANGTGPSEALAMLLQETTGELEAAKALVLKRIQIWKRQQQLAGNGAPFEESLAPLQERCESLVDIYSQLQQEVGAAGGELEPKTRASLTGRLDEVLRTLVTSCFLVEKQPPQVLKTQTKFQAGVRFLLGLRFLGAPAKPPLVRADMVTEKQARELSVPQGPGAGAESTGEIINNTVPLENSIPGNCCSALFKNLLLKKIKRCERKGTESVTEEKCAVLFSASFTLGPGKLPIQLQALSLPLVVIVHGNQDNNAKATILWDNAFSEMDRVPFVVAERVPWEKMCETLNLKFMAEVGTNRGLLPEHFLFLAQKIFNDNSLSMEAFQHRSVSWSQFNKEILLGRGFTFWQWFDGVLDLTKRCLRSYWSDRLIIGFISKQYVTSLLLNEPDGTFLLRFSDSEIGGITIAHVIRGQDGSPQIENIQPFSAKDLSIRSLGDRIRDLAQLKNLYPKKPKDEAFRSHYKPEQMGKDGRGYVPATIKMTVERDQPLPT
pIC50: −log10 of the molar value.

Answered examples (5):
Per the record, O=C(N[C@H]1CCC[C@H]2CC[C@@H](C(=O)N3CC(c4cnccc4F)C3)N2C1=O)c1cc2cc([C@@H](F)P(=O)(O)O)ccc2s1 (single isomer, unassigned) has pIC50 of 5.52 to 6.52

Reported pIC50 ( O=C(N[C@H]1CCCC[C@H]2CC[C@@H](C(=O)N[C@@H](CO)Cc3cccnc3)N2C1=O)c1cc2cc(C(F)(F)P(=O)(O)O)ccc2s1 ) = 4.52 to 5.52

The molecule O=C(N[C@H]1CCC[C@H]2CC[C@@H](C(=O)N3CC(c4cnccc4OC4CCCC4)C3)N2C1=O)c1cc2cc(C(F)P(=O)(O)O)ccc2s1 (some centres unmarked) showed pIC50 equal to 4.52 to 5.52

The recorded pIC50 for CN1CCN(c2ccncc2C2CN(C(=O)[C@@H]3CC[C@@H]4CCC[C@H](NC(=O)c5cc6cc([C@@H](F)P(=O)(O)O)ccc6s5)C(=O)N43)C2)C1=O is 4.52 to 5.52

The measured pIC50 associated with Cc1cccnc1C1CN(C(=O)[C@@H]2CC[C@@H]3CCC[C@H](NC(=O)c4cc5cc(C(F)(F)P(=O)(O)O)ccc5s4)C(=O)N32)C1 reads 5.52 to 6.52

Others:
Per the record, CC(NC(=O)[C@@H]1CC[C@@H]2CCCC[C@H](NC(=O)c3cc4cc(C(F)(F)P(=O)(O)O)ccc4s3)C(=O)N21)c1cc[nH]c(=O)c1 (some centres unmarked) has pIC50 of 5.52 to 6.52

Entry under test: O=C(N[C@H]1CCCC[C@H]2CC[C@@H](C(=O)NCc3cnc4[nH]cnc4c3)N2C1=O)c1cc2cc(CP(=O)(O)O)ccc2s1 . Its pIC50 was 4.52 to 5.52

Lab book: pIC50 of CC1(C)C[C@H](c2ccccc2)CN1C(=O)[C@@H]1CC[C@@H]2CCCC[C@H](NC(=O)c3cc4cc(C(F)(F)P(=O)(O)O)ccc4s3)C(=O)N21 noted as 5.52 to 6.52

Query O=C(N[C@H]1CCCC[C@H]2CC[C@@H](C(=O)N[C@H]3COCC3F)N2C1=O)c1cc2cc(C(F)(F)P(=O)(O)O)ccc2s1 (relative stereo) yields pIC50 of 5.52 to 6.52

The molecule listed as CN(C)c1nccc(C2CN(C(=O)[C@@H]3CC[C@@H]4CCC[C@H](NC(=O)c5cc6cc([C@@H](F)P(=O)(O)O)ccc6s5)C(=O)N43)C2)n1 (single isomer, unassigned) has a reported pIC50 of 4.52 to 5.52

# pIC50 of O=C(N[C@H]1CCC[C@H]2CC[C@@H](C(=O)N3CCn4cncc4C3)N2C1=O)c1cc2cc(C(F)(F)P(=O)(O)O)ccc2s1 = 5.52 to 6.52
